# target.under.test: bovine cardiac myofibrils (full-length cardiac myosin ATPase in the native sarcomere) (Bos taurus (Bovine), UniProt Q9BE39)
# Sequence (Q9BE39 whole entry): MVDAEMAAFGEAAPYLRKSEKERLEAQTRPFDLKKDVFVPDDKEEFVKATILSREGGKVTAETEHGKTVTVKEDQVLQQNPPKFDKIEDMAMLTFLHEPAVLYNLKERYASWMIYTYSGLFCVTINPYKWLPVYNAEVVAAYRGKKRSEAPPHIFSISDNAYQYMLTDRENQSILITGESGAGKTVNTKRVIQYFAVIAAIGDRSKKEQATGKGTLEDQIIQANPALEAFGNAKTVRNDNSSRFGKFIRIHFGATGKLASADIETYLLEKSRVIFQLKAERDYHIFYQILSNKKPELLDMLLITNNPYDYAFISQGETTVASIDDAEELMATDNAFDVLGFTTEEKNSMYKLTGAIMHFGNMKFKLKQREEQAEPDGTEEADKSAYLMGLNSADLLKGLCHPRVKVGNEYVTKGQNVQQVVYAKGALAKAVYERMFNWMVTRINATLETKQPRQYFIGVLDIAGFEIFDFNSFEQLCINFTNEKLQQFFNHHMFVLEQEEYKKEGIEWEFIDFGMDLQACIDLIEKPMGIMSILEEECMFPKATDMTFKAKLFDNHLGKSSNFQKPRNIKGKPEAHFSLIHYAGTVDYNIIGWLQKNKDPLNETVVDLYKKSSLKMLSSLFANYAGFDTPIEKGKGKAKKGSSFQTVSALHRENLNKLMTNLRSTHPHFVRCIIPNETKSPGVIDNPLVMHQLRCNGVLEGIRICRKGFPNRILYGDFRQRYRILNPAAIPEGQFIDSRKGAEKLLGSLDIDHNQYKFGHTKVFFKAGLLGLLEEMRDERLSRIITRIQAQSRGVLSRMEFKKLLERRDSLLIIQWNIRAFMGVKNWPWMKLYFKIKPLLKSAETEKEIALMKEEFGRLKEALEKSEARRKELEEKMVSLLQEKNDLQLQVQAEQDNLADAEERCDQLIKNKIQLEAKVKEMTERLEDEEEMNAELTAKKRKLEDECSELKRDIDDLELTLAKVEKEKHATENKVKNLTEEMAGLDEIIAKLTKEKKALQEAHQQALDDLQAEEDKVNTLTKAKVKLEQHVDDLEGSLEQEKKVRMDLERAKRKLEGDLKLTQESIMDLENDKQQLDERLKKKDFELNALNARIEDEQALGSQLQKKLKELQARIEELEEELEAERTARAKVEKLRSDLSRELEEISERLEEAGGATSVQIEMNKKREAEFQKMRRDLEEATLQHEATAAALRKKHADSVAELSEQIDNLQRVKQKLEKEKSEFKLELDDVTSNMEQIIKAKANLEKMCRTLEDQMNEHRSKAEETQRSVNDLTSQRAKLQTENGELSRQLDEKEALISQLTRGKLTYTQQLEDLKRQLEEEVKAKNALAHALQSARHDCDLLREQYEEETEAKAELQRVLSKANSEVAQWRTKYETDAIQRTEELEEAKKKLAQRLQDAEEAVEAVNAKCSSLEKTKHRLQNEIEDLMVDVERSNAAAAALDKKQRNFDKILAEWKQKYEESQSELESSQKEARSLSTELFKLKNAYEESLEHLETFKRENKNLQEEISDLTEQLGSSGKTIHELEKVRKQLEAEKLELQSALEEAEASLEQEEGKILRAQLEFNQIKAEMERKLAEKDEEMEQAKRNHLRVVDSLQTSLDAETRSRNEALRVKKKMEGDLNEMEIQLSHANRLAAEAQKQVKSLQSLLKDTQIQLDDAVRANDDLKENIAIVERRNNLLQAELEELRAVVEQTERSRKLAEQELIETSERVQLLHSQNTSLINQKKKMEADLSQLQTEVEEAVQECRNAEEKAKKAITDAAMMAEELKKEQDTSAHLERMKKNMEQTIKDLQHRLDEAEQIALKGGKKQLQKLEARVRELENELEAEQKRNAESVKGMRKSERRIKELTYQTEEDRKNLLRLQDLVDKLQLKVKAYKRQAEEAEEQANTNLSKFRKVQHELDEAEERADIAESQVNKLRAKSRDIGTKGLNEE
# Sequence (P85100 whole entry partner): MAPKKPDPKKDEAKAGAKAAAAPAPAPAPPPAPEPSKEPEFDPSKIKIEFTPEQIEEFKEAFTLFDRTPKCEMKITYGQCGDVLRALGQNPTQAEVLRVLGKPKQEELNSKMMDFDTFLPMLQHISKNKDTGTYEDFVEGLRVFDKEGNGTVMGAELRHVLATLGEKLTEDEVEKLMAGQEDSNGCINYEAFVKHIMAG
# Sequence (Q3SZE5 whole entry partner): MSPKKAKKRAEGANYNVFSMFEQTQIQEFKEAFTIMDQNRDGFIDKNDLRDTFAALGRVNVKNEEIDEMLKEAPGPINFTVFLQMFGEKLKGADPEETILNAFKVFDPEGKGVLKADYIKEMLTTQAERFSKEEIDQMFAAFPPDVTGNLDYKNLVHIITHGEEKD
# method.summary: Skinned bovine cardiac myofibril ATPase assay (PK/LDH-coupled)
# Format: biochemical
# details: Ca2+ activating to 75% of maximal rate, concentration giving 15% inhibition
measured.endpoint: CDMF75 IC15 (nM)

Sample records with CDMF75 IC15:
>>> recorded_value("COCc1nc(-c2ccc3c(c2)CC[C@H]3NC(=O)c2cnn(CCO)c2)no1")
2900
>>> recorded_value("Cc1cc(C(=O)N[C@@H]2CCc3cc(-c4noc(C(F)F)n4)ccc32)n(C)n1")
300

[I] Cc1nccc(-c2ccc3c(c2)CC[C@H]3NC(=O)c2ccnn2C)n1
[II] [2H]C([2H])([2H])c1nc(-c2ccc3c(c2)OC[C@H]3NC(=O)c2ccnn2C)no1
Please choose the item with the lower CDMF75 IC15 value from this pair: I and II # reply format: chosen label
II

Values compiled from patent US12065436B2.
